Origin of values: PubChem BioAssay (NCI)

# Test system: HCC-2998 colon
# method_notes: NCI tumour cell line growth inhibition, 48 h
recorded_endpoint: TGI

compound: CCCCCC[C@H]1CC(=O)C2CCCC[C@@]23CC[C@H](CCl)N13 (some centres undefined) (tested in a mixture with another compound)
recorded_value: > 100 µM
//
compound: CC(=O)c1cc2c(cc1Nc1c3ccccc3nc3occ(Cl)c13)OCO2
recorded_value: 0.37 µM
//
compound: C=C1CC[C@@H](Br)C(C)(C)[C@]12CCC(C)(O)C(Cl)C2 (some centres undefined)
recorded_value: 38.2 µM
//
compound: CCOP(=O)(OCC)C(N)Cc1ccc(OC)c(OC)c1 (centres undefined)
recorded_value: > 100 µM
//
compound: CCN(CC)CCCNc1nc(=O)[nH]c(C)c1C(=O)Nc1c2ccccc2nc2ccccc12
recorded_value: 80.6 µM
//
compound: CN(C)c1nc2n(CCO)c(-c3ccccc3)c(-c3ccccc3)nc-2c(=O)n1
recorded_value: > 100 µM
//
compound: C1C[S][Ge]2([S]CCO1)[S]CCOCC[S]2
recorded_value: > 100 µM
//
compound: O=C1C(Cl)=C(N2C(=O)CCCC2=O)C(=O)c2ccccc21
recorded_value: 31.4 µM
//
compound: CCOC(=O)C(NCc1ccc2c(c1)OCO2)(NC(=O)c1ccccc1)C(F)(F)F (centres undefined)
recorded_value: > 100 µM
//
compound: C/C(=N\N=C(\[Se])N1CCN(c2ccccn2)CC1)c1ccccn1
recorded_value: 23.3 µM
//
compound: COc1cc(N/N=C/C#N)cc(OC)c1OC
recorded_value: > 10 µM
//
compound: CCOC(=O)[C@H](O)[C@@H](O)C(=O)NCc1ccc(C(=O)c2ccccc2)cc1
recorded_value: > 100 µM
//
compound: O=C(c1ccc2ccccc2c1)N(Cc1cccnc1)C(=S)N(Cc1cccnc1)C(=O)c1ccc2ccccc2c1
recorded_value: 32 µM
//
compound: COCc1cc2c(cc1/C(=C/[N+](=O)[O-])CS(=O)(=O)c1ccccc1)OCO2
recorded_value: > 100 µM
//
compound: Cc1nc2ccccc2c(=O)n1NC(=O)c1ccc([N+](=O)[O-])cc1
recorded_value: > 100 µM
//
compound: Cc1ccc(C[P+]2(c3ccccc3)CCCCC2)cc1
recorded_value: 60.8 µM
//
compound: CCOC(=O)c1cc2c(nc1N)-c1ncccc1CC2
recorded_value: > 100 µM
//
compound: O=C(CN1CCN(c2ccc(Cl)cc2)CC1)N1CCN(c2nnc(-c3ccc(Cl)cc3)c(-c3ccc(Cl)cc3)n2)CC1
recorded_value: > 100 µM
//
compound: O=C(c1cc2ccccc2o1)N(Cc1ccccc1)c1ccccc1
recorded_value: 46.1 µM
//
compound: C=CC[P+](c1ccccc1)(c1ccccc1)c1ccccc1
recorded_value: > 100 µM
//
compound: O=C(Nc1ccc(CN2CCOCC2)cc1)c1[nH]ncc1Nc1ncnc2sccc12
recorded_value: 5.08 µM
//
compound: Nc1nncc2c1ccn2C1OC(CO)C(O)C1O (centres undefined)
recorded_value: > 100 µM
//
compound: COc1ccc(C2=NN(C(=O)c3cc(OC)c(OC)c(OC)c3)C(c3ccc(Cl)cc3)C2)cc1OC (centres undefined)
recorded_value: > 100 µM
//
compound: C=C(C)C1CC2(C)C(C)CC(OC(=O)/C(C)=C\C)CC2C(OC(=O)/C(C)=C\C)C1O (centres undefined)
recorded_value: > 100 µM
//
compound: O=C(CCCN1CCOCC1)Nc1ccc(Cn2nnc3c2C(=O)c2nnn(Cc4ccc(NC(=O)CCCN5CCOCC5)cc4)c2C3=O)cc1
recorded_value: 5.79 µM
//
compound: COC(=O)C1C(OC(=O)C(Cl)(c2ccccc2)c2ccccc2)CC2CCC1N2C (centres undefined)
recorded_value: > 100 µM
//
compound: O=C1c2ccccc2C(=O)c2c(NCCNCCO)ccc(O)c21
recorded_value: 17.8 µM
//
compound: O=C1c2ccccc2C(=Cc2ccccc2)c2ccccc21
recorded_value: 10.1 µM
//
compound: COC(=O)[C@H]1C[C@H]1NC(=O)C(CC(=O)OCc1ccccc1)NC(=O)OCc1ccccc1 (some centres undefined)
recorded_value: > 100 µM
//
compound: Cc1nn(C(=O)c2ccc(Cl)cc2)c2c1C(c1cccc([N+](=O)[O-])c1)SC(N)=N2 (centres undefined)
recorded_value: > 10 µM
//
compound: Cn1cc(C2=C(c3cccnc3)C(=O)NC2=O)c2ccccc21
recorded_value: > 25 µM
//
compound: CN1CCN(Cc2ccc(NC(=O)c3cncc(C#Cc4cncc5ncccc45)c3)cc2C(F)(F)F)CC1
recorded_value: 17.6 µM
//
compound: CC/C(=C(/CC)c1ccc([O-])cc1)c1ccc([O-])cc1.CC/C(=C(\CC)c1ccc([O-])cc1)c1ccc([O-])cc1.O=C([CH-]C(=O)c1ccccc1)c1ccccc1.O=C([CH-]C(=O)c1ccccc1)c1ccccc1.O=C([CH-]C(=O)c1ccccc1)c1ccccc1.O=C([CH-]C(=O)c1ccccc1)c1ccccc1.[Ti+4].[Ti+4]
recorded_value: > 100 µM
//
compound: O=C1c2ccccc2C(=O)c2c1ccc1nc3c(nc21)-c1c2ccccc2cc2cccc-3c12
recorded_value: > 100 µM
//
compound: CC(=O)OCC(=O)O[C@@H]1C[C@]2(C(C)C)O[C@@]1(C)[C@@H]1CC[C@@H](C)[C@H]1[C@@H]2OC(=O)/C=C/c1ccccc1
recorded_value: 75.3 µM
//
compound: O=C1CCCC/C1=C1\C(=O)Nc2cc(F)ccc21
recorded_value: > 100 µM
//
compound: Cc1ccc(Nc2n[nH]c(=S)s2)cc1
recorded_value: > 100 µM
//
compound: Cn1cc(-c2cnc(-c3cn(C)c4ccccc34)cn2)c2ccccc21
recorded_value: 41.7 µM
//
compound: O=C1C(C(c2ccccc2)N2CCOCC2)=C(O)C(c2ccccc2)N1c1ccccc1 (centres undefined)
recorded_value: > 10 µM
